measurementTarget: Schistosoma mansoni thioredoxin glutathione reductase (TGR)
assayComment: qHTS Assay for the Inhibitors of Schistosoma Mansoni Peroxiredoxins; also: nearly all actives have a fitted effect of over 60% in size
conditionDescription: purified TGR, DTNB reduction, TNB absorbance 405 nm; series mostly up to 114 µM
About 11,000 (3.1%) of roughly 360,000 compounds were called active. About 4% were inconclusive and are not listed. Calls follow the shape of the dose curve; as a rule, active = well fitted inhibition curve with a large enough effect; inconclusive = small, poorly fitted or top-dose-only effect; inactive = no such curve, though single readings can be large or run the other way. Many of the other results were omitted from the sample, so actives are more common in it than they were.
Respond using exactly one of the listed classes: active, inactive

Query :: Assay result, entry "O=C(O)c1ccc(CSc2nc3cccnc3n2Cc2cccc(F)c2)cc1" — outcome?
Result :: inactive

Query :: Assay result, entry "CSc1ccccc1NC(=O)COC(=O)CCCOc1ccc(C)cc1" — outcome?
Result :: inactive

Query :: Assay result, entry "O=C(CSc1nnc(-c2ccccc2F)o1)Nc1cccc(C(F)(F)F)c1" — outcome?
Result :: inactive

---

measurementTarget: Schistosoma mansoni thioredoxin glutathione reductase (TGR)
assayComment: qHTS Assay for the Inhibitors of Schistosoma Mansoni Peroxiredoxins; also: nearly all actives have a fitted effect of over 60% in size; also: potency is read from the fitted curve at half-maximal effect
conditionDescription: purified TGR, DTNB reduction, TNB absorbance 405 nm; series mostly up to 114 µM
Text: Schistosomiasis is a major neglected tropical disease that currently affects over 200 million. It is caused by different species of flatworms, such as Schistosoma mansoni. […] In addition, the fluorescence assay was also subject to fluorescence interference from compound library members. […] The assay followed the reduction of 5, 5'-dithiobis (2-nitrobenzoic acid) (DTNB) (Ellman's reagent) by NADPH and measured the increase in absorbance at 412 nm of the reaction product, TNB. […]
About 11,000 (3.1%) of roughly 360,000 compounds were called active. About 4% were inconclusive and are not listed. This excerpt belongs to a sample that is enriched for actives.
quantity: Potency

compound: CCCCc1nn2c(=O)cc(COC(=O)c3cccc(NC(=O)COc4ccccc4)c3)nc2s1
measurementTarget: Schistosoma mansoni thioredoxin glutathione reductase (TGR)
Potency: inactive

compound: Cc1cccc(NC(=O)CN2CCCN(S(=O)(=O)c3ccc(Br)s3)CC2)c1
measurementTarget: Schistosoma mansoni thioredoxin glutathione reductase (TGR)
Potency: 25.1 µM (active)

compound: Cc1ccc(S(=O)(=O)N2CCN(CC(=O)N/N=C/c3ccc(Br)s3)CC2)cc1
measurementTarget: Schistosoma mansoni thioredoxin glutathione reductase (TGR)
Potency: inactive

compound: COc1c(Cl)cc(C(=O)N(Cc2ccccc2F)C2CCS(=O)(=O)C2)cc1Cl (stereo not given)
measurementTarget: Schistosoma mansoni thioredoxin glutathione reductase (TGR)
Potency: inactive

compound: Cc1nc2c(c(C)nn2-c2ccccc2)c(C)c1CCC(=O)NCCc1ccc(Cl)cc1
measurementTarget: Schistosoma mansoni thioredoxin glutathione reductase (TGR)
Potency: inactive

compound: Cn1sc(=O)c2cc(S(=O)(=O)NC3CC3)ccc21
measurementTarget: Schistosoma mansoni thioredoxin glutathione reductase (TGR)
Potency: 1.58 µM (active)

compound: CN(C)CCOC(=O)C(c1ccccc1)C1(O)CCCC1 (stereo not given)
measurementTarget: Schistosoma mansoni thioredoxin glutathione reductase (TGR)
Potency: inactive

compound: CCC(C)Nc1oc(-c2ccc(COc3ccc(Cl)cc3)o2)nc1C#N (stereo not given)
measurementTarget: Schistosoma mansoni thioredoxin glutathione reductase (TGR)
Potency: inactive

Potency for "CC(C)N(C(=O)CN1CCN(S(=O)(=O)c2ccc(Br)s2)CC1)C(C)C" is inactive

Potency for "CCOC(=O)c1c(N)n(-c2cccc(C)c2C)c2nc3ccccc3nc12" is inactive

---

measurementTarget: Schistosoma mansoni thioredoxin glutathione reductase (TGR)
assayComment: qHTS Assay for the Inhibitors of Schistosoma Mansoni Peroxiredoxins; also: nearly all actives have a fitted effect of over 60% in size
conditionDescription: purified TGR, DTNB reduction, TNB absorbance 405 nm; series mostly up to 114 µM
About 11,000 (3.1%) of roughly 360,000 compounds were called active. Roughly 4% stayed inconclusive and do not appear here. Calls come from the whole dose curve; as a rule, active = well fitted inhibition curve with a large enough effect; inconclusive = small, poorly fitted or top-dose-only effect; inactive = no such curve, though single readings can be large or run the other way. For the sample, actives were picked, then their nearest neighbours and some compounds at random.
Respond using exactly one of the listed classes: active, inactive

Completed entries (count: 5):
compound: O=C(Nc1ccc(Cl)cc1)C1c2cccc[n+]2CC(=O)N1Cc1ccc2c(c1)OCO2 (stereo not given)
groupLabel: active
//
compound: COc1ccc(C(=O)c2c3ccc([N+](=O)[O-])cc3[n+]([O-])n2CCCN)cc1
groupLabel: active
//
compound: COc1ccc2c(C(=O)c3ccc(C)cc3)n(CCC(N)=O)[n+]([O-])c2c1
groupLabel: inactive
//
compound: COc1ccc(-c2nc(SCC(=O)N3CCCC3)n[nH]2)cc1
groupLabel: inactive
//
compound: CCN1CCN(c2ncc3c(n2)CC(c2ccccc2O)CC3=O)CC1 (stereo not given)
groupLabel: inactive

Shift focus to the following entry.
Query :: Assay result, entry "COc1ccc(/C=C/c2noc(-c3ccccc3O)n2)cc1OC" — outcome?
Result :: inactive

---

measurementTarget: Schistosoma mansoni thioredoxin glutathione reductase (TGR) (UniProt Q962Y6)
assayComment: qHTS Assay for the Inhibitors of Schistosoma Mansoni Peroxiredoxins; also: nearly all actives have a fitted effect of over 60% in size
conditionDescription: purified TGR, DTNB reduction, TNB absorbance 405 nm; series mostly up to 114 µM
Out of some 360,000 compounds screened, about 11,000 (3.1%) were called active. Not shown: some 4% with an inconclusive outcome. Calls come from the whole dose curve; as a rule, active = well fitted inhibition curve with a large enough effect; inconclusive = small, poorly fitted or top-dose-only effect; inactive = no such curve, though single readings can be large or run the other way. Many of the other results were omitted from the sample, so actives are more common in it than they were.
Respond using exactly one of the listed classes: 1 = active, 0 = inactive

Completed entries (count: 3):
molecule: O=C(c1cccc([N+](=O)[O-])c1)N1CCN(C(=O)c2ccco2)CC1
measurementTarget: Schistosoma mansoni thioredoxin glutathione reductase (TGR) (UniProt Q962Y6)
groupLabel: 0
//
molecule: O=C(Nc1ccccc1N1CCOCC1)c1csc2c1CCCC2
measurementTarget: Schistosoma mansoni thioredoxin glutathione reductase (TGR) (UniProt Q962Y6)
groupLabel: 0
//
molecule: O=C(CNS(=O)(=O)c1ccccc1)N1CCN(C(=O)c2ccco2)CC1
measurementTarget: Schistosoma mansoni thioredoxin glutathione reductase (TGR) (UniProt Q962Y6)
groupLabel: 0

Query :: Assay result, entry "O=C(N/N=C/c1ccco1)c1csc2c1CCCC2" — outcome?
Result :: 1

Query :: Assay result, entry "CCCCCn1c(=O)[nH]c2cc(C(=O)Nc3ccc(F)cc3)ccc2c1=O" — outcome?
Result :: 0

Query :: Assay result, entry "Cc1ccc(Cl)cc1N1CCN(C(=O)CN2C(=O)COc3ccc(S(=O)(=O)N4CCOCC4)cc32)CC1" — outcome?
Result :: 0

Query :: Assay result, entry "CC1=Nc2cc(C(=O)N3CCC(C)CC3)ccc2Sc2ccc(Cl)cc21" — outcome?
Result :: 0

---

measurementTarget: Schistosoma mansoni thioredoxin glutathione reductase (TGR) (UniProt Q962Y6)
assayComment: qHTS Assay for the Inhibitors of Schistosoma Mansoni Peroxiredoxins; also: nearly all actives have a fitted effect of over 60% in size
conditionDescription: purified TGR, DTNB reduction, TNB absorbance 405 nm; series mostly up to 114 µM
Out of some 360,000 compounds screened, about 11,000 (3.1%) were called active. Inconclusive results (about 4%) are left out. The call rests on the fitted dose curve; in most records, active means well fitted inhibition curve with a large enough effect; inconclusive means small, poorly fitted or top-dose-only effect; inactive means no such curve, though single readings can be large or run the other way. Only a selection was taken, and actives are over-represented in it overall.
Respond using exactly one of the listed classes: T = active, F = inactive

molecule: O=C(Nc1ccc(S(=O)(=O)Nc2ncccn2)cc1)c1cncc(Br)c1
measurementTarget: Schistosoma mansoni thioredoxin glutathione reductase (TGR) (UniProt Q962Y6)
groupLabel: F

Query :: Assay result, entry "COc1cc(NS(=O)(=O)c2ccc(NC(=O)c3ccc(S(=O)(=O)N4CCCCC4)cc3)cc2)ncn1" — outcome?
Result :: F

Query :: Assay result, entry Cc1ccsc1CN(C(=O)c1oc2ccc(Br)cc2c1C)C1CCS(=O)(=O)C1 (stereo unspecified) — outcome?
Result :: F

Query :: Assay result, entry "COc1ccc(NS(=O)(=O)c2ccc(NC(=S)NC(=O)CC(C)C)cc2)cc1" — outcome?
Result :: F

---

measurementTarget: Schistosoma mansoni thioredoxin glutathione reductase (TGR)
assayComment: qHTS Assay for the Inhibitors of Schistosoma Mansoni Peroxiredoxins; also: nearly all actives have a fitted effect of over 60% in size; also: potency is read from the fitted curve at half-maximal effect
conditionDescription: purified TGR, DTNB reduction, TNB absorbance 405 nm; series mostly up to 114 µM
In all, about 360,000 compounds went through this assay and about 11,000 (3.1%) were called active. Not shown: some 4% with an inconclusive outcome. Only a selection was taken, and actives are over-represented in it overall.
quantity: Potency

Examples with their reported Potency follow.
compound: O=Cc1c(Nc2ccccc2Cl)nc2ccccn2c1=O
quantity: Potency
observedResult: 10 µM (active)
//
compound: CCOc1ccccc1C(=O)NCC(c1ccc(N(C)C)cc1)N1CCCC1 (stereo unspecified)
quantity: Potency
observedResult: inactive
//
compound: COc1ccc(S(=O)(=O)N2CCC(C(=O)N3CCCC3)CC2)cc1C
quantity: Potency
observedResult: inactive
//
compound: COC(=O)c1cc(S(=O)(=O)N2CCN(c3cc(Cl)ccc3C)CC2)c[nH]1
quantity: Potency
observedResult: inactive
//
compound: O=C(CCn1c(=O)c2sccc2n(Cc2ccc(F)cc2)c1=O)NCc1ccc2c(c1)OCO2
quantity: Potency
observedResult: inactive

Potency for "Cc1cccc(C(=O)Nc2ccc(C(=O)N/N=C/c3cccc(C)n3)cc2)c1" is inactive

Potency for "COc1ccc(S(=O)(=O)N2CCC(C(=O)N3CCOCC3)CC2)cc1OC" is 79.4 µM (active)

Potency for "Cc1cccn2c(=O)c(C=O)c(Nc3ccc(S(N)(=O)=O)cc3)nc12" is inactive

Potency for Cc1ccc(-c2nnc(Nc3cccc(Br)c3)c3ccccc23)cc1S(=O)(=O)NCC1CCCO1 (stereo unspecified) is inactive

Potency for "CCOC(=O)C1(CCc2ccccc2)CCN(Cc2ccco2)CC1" is inactive

Potency for COc1ccc(CNC(=O)c2ccc(NC(=O)N3CC4CCCN4c4ccccc43)cc2)cc1 (stereo unspecified) is inactive

Potency for CC(CN1CCOCC1)c1ccccc1 (stereo unspecified) is inactive

Potency for "COc1ccc(-n2c(SCC(=O)NCc3ccco3)nnc2-c2c[nH]c3ccccc23)cc1" is inactive

Potency for "CC1CCN(S(=O)(=O)c2ccc3c(ccn3CCC(=O)NCc3ccc(N(C)C)cc3)c2)CC1" is inactive

Potency for "CS(=O)(=O)C1=NN2C(=N)/C(=C\c3ccc(OCCOc4ccccc4)cc3)C(=O)N=C2S1" is inactive

Potency for "Cc1cc(OCC(=O)Nc2ncn[nH]2)c(C)c(C)c1Br" is inactive

Potency for "CCOc1ccc(CCNC(=O)Cn2nc(CC)n3c(cc4sc(CC)cc43)c2=O)cc1OCC" is inactive

Potency for CCN1CCN(C(=O)C2CCCN(S(=O)(=O)c3ccc(OC)c(OC)c3)C2)CC1 (stereo unspecified) is inactive

Potency for "Cc1ccccc1C(=O)Nc1nnc(S(=O)(=O)N(C)c2ccc(Cl)cc2)s1" is inactive

Potency for "COc1cccc(NC(=O)CN2CCN(CC(=O)Nc3ccccc3Cl)CC2)c1" is inactive

Potency for "COc1cc(C(=O)NCCS(=O)(=O)N2CCN(c3ccccc3)CC2)cc(OC)c1OC" is inactive

Potency for "COc1ccc(-n2c(SCC(=O)NCc3cccs3)nnc2-c2ccoc2C)cc1" is 39.8 µM (active)

Potency for "Cc1cc(OCC(=O)NCC2(N(C)C)CCCCC2)cc(C)c1Cl" is inactive

Potency for "COc1ccc(-n2nnnc2SCC(=O)NCc2cccs2)cc1" is inactive

Potency for "CCS(=O)(=O)C1=NSC2=NC(=O)/C(=C\c3ccc(OS(=O)(=O)c4ccccc4)cc3)C(=N)N21" is inactive

Potency for "Cc1cc(NS(=O)(=O)c2ccc(NC(=O)c3ccccc3C)cc2)nc(C)n1" is inactive

Potency for CCOC(=O)C1CCCN(C(=O)Cn2ncc3c(C)n(Cc4ccc(F)cc4)c(C)c3c2=O)C1 (stereo unspecified) is inactive

Potency for "CN(c1ccccc1)S(=O)(=O)c1ccc(Cl)c(C(=O)OCC(=O)NCc2ccco2)c1" is 22.4 µM (active)

Potency for "CCOc1ccc2oc(=O)cc(CN3CCN(C(=O)c4ccc(F)cc4)CC3)c2c1" is inactive
